- SYSTEM UNDER TEST: T1, plasma-derived human activated protein C (APC) (UniProt P04070 43-461)
- T1 chain: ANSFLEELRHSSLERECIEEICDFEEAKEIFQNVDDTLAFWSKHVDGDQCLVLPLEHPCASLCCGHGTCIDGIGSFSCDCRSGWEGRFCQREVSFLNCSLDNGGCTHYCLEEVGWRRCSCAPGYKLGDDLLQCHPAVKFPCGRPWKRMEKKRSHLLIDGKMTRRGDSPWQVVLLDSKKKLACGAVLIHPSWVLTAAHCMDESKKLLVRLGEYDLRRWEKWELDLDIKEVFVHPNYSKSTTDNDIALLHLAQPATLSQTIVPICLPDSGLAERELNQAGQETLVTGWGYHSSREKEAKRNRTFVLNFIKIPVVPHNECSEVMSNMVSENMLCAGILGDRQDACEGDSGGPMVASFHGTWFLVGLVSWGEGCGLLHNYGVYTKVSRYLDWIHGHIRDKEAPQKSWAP
- ASSAY PROTOCOL: SPR
pKd: −log10 of the molar value.
As shown below, each of these binders has a reported pKd value.

[
  {
    "BINDER": "TPP-26921 (antibody, V domains shown) VH: EVQLVESGGGLVQPGGSLRLSCAASGFTFSNYYMSWVRQAPGKGLEWVGDIRLKSNNYEKHYAESVKGRFTISRDDSKNSLYLQMNSLKTEDTAVYYCAREGDYFDYWGQGTLVTVSS VL: EIVLTQSPGTLSLSPGERATLSCRASQSVSSFGATFMHWYQQKPGQPPKLLIYLASNRASGVPDRFSGSGSGTDFTLTINPVEADDTANYYCQQNNEDPYTFGQGTKLEIKR",
    "pKd": 7.51
  },
  {
    "BINDER": "TPP-26934 (antibody, V domains shown) VH: EVQLVESGGGLVQPGGSLRLSCAASGFTFSNYYINWVRQAPGKGLEWVGDIRLKSNNYEKHYAESVKGRFTISRDDSKNSLYLQMNSLKTEDTAVYYCAREGDYFDYWGQGTLVTVSS VL: EIVLTQSPGTLSLSPGERATLSCRASQSVSSFGATFMHWYQQKPGQPPKLLIYLASNRASGVPDRFSGSGSGTDFTLTINPVEADDTANYYCQQNNEDPYTFGQGTKLEIKR",
    "pKd": 7.70
  },
  {
    "BINDER": "TPP-26924 (antibody, V domains shown) VH: EVQLVESGGGLVQPGGSLRLSCAASGFTFSNYYMSWVRQAPGKGLEWVGDIRLKSNNYEKHYAESVKGRFTISRDDSKNSLYLQMNSLKTEDTAVYYCAREGDYFDYWGQGTLVTVSS VL: DIVLTQSPASLAVSPGQRATITCKASQSVSSFGATFMHWYLQKPGQSPQLLIYLASNRASGVPDRFSGSGSGTDFTLTINPVEADDTANYYCQQNNEDPYTFGQGTKLEIKR",
    "pKd": 7.56
  }
]
